Assign MIC to each entry below.
# Tested on: Mycolicibacterium fortuitum
# Procedure Details: Antimycobacterial activity against Mycobacterium fortuitum ATCC 6841 after 3 days by MTT assay
# Assay type: functional
# Run Parameters: ATCC 6841, 72 h
Please respond with the number in µg/mL and leave the unit unwritten.

Which value of MIC has been reported for `C#CCn1c(/C=C/CCCCCCC)cc(=O)c2ccccc21` in the records?
32

Looking for the measured MIC of NNC(=O)c1ccncc1 [ISONIAZID] , can you help?
1

Entry CC[C@@H](CO)NCCN[C@@H](CC)CO [ETHAMBUTOL] has what MIC?
16

Requested read-out: MIC. Entry: `CCCCCCCC/C=C/c1cc(=O)c2ccccc2n1CCC`
2

# query: MIC of entry `C=CCn1c(/C=C/CCCCCCCC)cc(=O)c2ccccc21`
4

Give its MIC value. Item: `CCCCCCCC/C=C/c1cc(=O)c2ccccc2n1CCCCC`
4

---

# Test system: Mycolicibacterium smegmatis
# Procedure Details: Antimycobacterial activity against Mycobacterium smegmatis mc2155 after 3 days by MTT assay
# Format: functional
# Run Parameters: mc2155, 72 h
Can you tell me MIC for the items I'm about to list?
Give your result in mg/L as a bare value.

Could you share which MIC value was measured for `CCCCCCCC/C=C/c1cc(=O)c2ccccc2n1CCCCC` ?
1

Name the reported MIC value associated with the compound `CCCCCCCC/C=C/c1cc(=O)c2ccccc2n1CCC`
2

What does the record list as MIC for `NNC(=O)c1ccncc1` ?
4

Returns the measured MIC for the input compound. Input: `C#CCn1c(/C=C/CCCCCCC)cc(=O)c2ccccc21`
2

Dear colleague, I am looking for the recorded MIC of the following compound: `C=CCn1c(/C=C/CCCCCCCC)cc(=O)c2ccccc21`
1

I'd like to know its MIC. The compound in question is `CC[C@@H](CO)NCCN[C@@H](CC)CO`
4

---

# Procedure Details: Cytotoxicity against human MRC5 cells assessed as cell viability at 0.12 uM after 72 hrs by XTT proliferation assay
# Assay type: cell-based
# Run Parameters: read-out: Activity
Quantity Kind: viability at 72 h, 0.12 µM

Need viability at 72 h, 0.12 µM, item `CC[C@]1(O)C[C@@H]2CN(CCc3c([nH]c4ccccc34)[C@@](C(=O)OC)(c3cc4c(cc3OC)N(C)[C@H]3[C@@](O)(C(=O)OC)[C@H](OC(C)=O)[C@]5(CC)C=CCN6CC[C@]43[C@@H]65)C2)C1`
60.1%

---

# Procedure Details: Cytotoxicity against human MRC5 cells assessed as cell viability at 100 uM after 72 hrs by XTT assay
# Assay type: cell-based
# Run Parameters: read-out: Activity
Could you please report measured viability at 72 h, 100 µM for the items listed next?

Query: viability at 72 h, 100 µM; subject: `C#CCn1c(/C=C/CCCCCCCCC)cc(=O)c2ccccc21`
26.3%

Using the record for `C=CCn1c(/C=C/CCCCCCCCCCCC)cc(=O)c2ccccc21` , report its viability at 72 h, 100 µM.
0.7%

// returns reported viability at 72 h, 100 µM for input `CCCCCCCCC/C=C/c1cc(=O)c2ccccc2n1CCCCC`
0.38%

Tell me the measured viability at 72 h, 100 µM of `CCCCCCC/C=C/c1cc(=O)c2ccccc2n1CC` , please.
52.6%

Fill in: viability at 72 h, 100 µM of `CCCCCCCC/C=C/c1cc(=O)c2ccccc2n1CCCCC` is ___
0.46%

Could you tell me which viability at 72 h, 100 µM is on file for `C#CCn1c(/C=C/CCCCCCCCCCCC)cc(=O)c2ccccc21` ?
10%

For `C#CCn1c(/C=C/CCCCCCC)cc(=O)c2ccccc21` , what is its reported viability at 72 h, 100 µM?
63.9%

Any idea what its viability at 72 h, 100 µM is? The molecule is `C=CCn1c(/C=C/CCCCCCCCCCC)cc(=O)c2ccccc21`
1.06%

Which viability at 72 h, 100 µM value is on record for `CCCCCCCCCC/C=C/c1cc(=O)c2ccccc2n1CCCCC` ?
0.25%

Look up viability at 72 h, 100 µM: `CCCCCCCC/C=C/c1cc(=O)c2ccccc2n1CC`
0.53%

Look up viability at 72 h, 100 µM for this molecule: `C=CCn1c(/C=C/CCCCCCCC)cc(=O)c2ccccc21`
0.63%

Any idea what its viability at 72 h, 100 µM is? The molecule is `CCCCCCCCCC/C=C/c1cc(=O)c2ccccc2n1CCCC`
0.45%

Fill blank: measured viability at 72 h, 100 µM of the molecule `C#CCn1c(/C=C/CCCCCCCC)cc(=O)c2ccccc21` is ____.
0.4%

Item under review: `CCCCCCCCCCCC/C=C/c1cc(=O)c2ccccc2n1CCC` . Reported viability at 72 h, 100 µM?
0.72%

Would you kindly share the measured viability at 72 h, 100 µM for `CCCCCCCC/C=C/c1cc(=O)c2ccccc2n1CCC` ?
0.5%

What viability at 72 h, 100 µM value was documented for this molecule, `C=CCn1c(/C=C/CCCCCCC)cc(=O)c2ccccc21` ?
0.53%

Returns the measured viability at 72 h, 100 µM for the input molecule. Input: `CCCCCCCCCCC/C=C/c1cc(=O)c2ccccc2n1CCCCC`
0.25%

Query (molecule): `C#CCn1c(/C=C/CCCCCCCCCC)cc(=O)c2ccccc21` ; field requested: viability at 72 h, 100 µM
0.64%

Report viability at 72 h, 100 µM for `CCCCCCCCCCCC/C=C/c1cc(=O)c2ccccc2n1CCCC` please.
0.51%

Dear colleague, I am looking for the recorded viability at 72 h, 100 µM of the following molecule: `CCCCCCC/C=C/c1cc(=O)c2ccccc2n1CCC`
7.4%

---

# Procedure Details: Cytotoxicity against human MRC5 cells assessed as cell viability at 30 uM after 72 hrs by XTT assay
# Type: cell-based
# Run Parameters: read-out: Activity
Would you mind telling me the reported viability at 72 h, 30 µM of each entry?
Kindly format the answer as number then unit.

I am curious: what viability at 72 h, 30 µM value has been reported for `CCCCCCCC/C=C/c1cc(=O)c2ccccc2n1CCCCC` ?
61.7%

// lookup viability at 72 h, 30 µM for `C#CCn1c(/C=C/CCCCCCC)cc(=O)c2ccccc21`
71.1%

What value of measured viability at 72 h, 30 µM is listed for `CCCCCCCCCCCC/C=C/c1cc(=O)c2ccccc2n1CCC` ?
42.6%

What value of viability at 72 h, 30 µM has been reported for the following compound? `CCCCCCCCCC/C=C/c1cc(=O)c2ccccc2n1CCCCC`
31.6%

What viability at 72 h, 30 µM value was documented for this compound, `CCCCCCCC/C=C/c1cc(=O)c2ccccc2n1CC` ?
39.2%

Given `CCCCCCCCC/C=C/c1cc(=O)c2ccccc2n1CCCCC` , state its recorded viability at 72 h, 30 µM.
41.6%

Query: viability at 72 h, 30 µM; subject: `C#CCn1c(/C=C/CCCCCCCCCCCC)cc(=O)c2ccccc21`
100%

Fill in: viability at 72 h, 30 µM of `CCCCCCC/C=C/c1cc(=O)c2ccccc2n1CCC` is ___
32.9%
